Reference source: patent US20240417436A1

# Subject of test: T1, recombinant human IL-2 receptor beta containing a His-tag and Avi-Tag (R&D Systems #AVI10459) (human, UniProt P14784 27-239)
# T1 construct: bought protein, held on the Octet SAX2 sensor; also called CD122; IL-2Rβ
# T1 sequence (looked up): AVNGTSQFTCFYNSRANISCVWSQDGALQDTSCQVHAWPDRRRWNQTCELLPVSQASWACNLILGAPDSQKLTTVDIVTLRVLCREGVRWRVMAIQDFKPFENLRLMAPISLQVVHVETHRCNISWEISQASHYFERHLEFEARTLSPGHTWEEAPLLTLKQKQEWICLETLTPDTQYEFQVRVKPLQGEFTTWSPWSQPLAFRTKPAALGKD
# Protocol summary: BLI (Octet), receptor on SAX2 sensor, MMP2-treated IL-2 as analyte
Bridges are numbered along the chain shown (N, C = ends). [ ]: non-standard residue; d: D form. Ygp = O-(8x polyethylene glycol-amino)-tyrosine; Yn3 = O-(9x polyethylene glycol-azido)-tyrosine; hSer = N[C@@H](CCO)C(=O)O; Nle = CCCC[C@H](N)C(=O)O
Let's look at some binders and their measured koff.

Binder | koff / s⁻¹
CMP-167, MMP2 cleaved (ligand, not fully specified; as CMP-167 but cleavable peptide cut by MMP2 (macrocycle opened); cut site not given) APTSSSTKKTQLQLEHLLLDLQKILNGINNYKNPKLTRXLXYKFYXPKKATELKHLQCLEEELKPLEEVLXLAQSKNFHLRPRDLISNINVIVLELKGSETTFXCEYADETATIVEFLNRWITFSQSIISTLT | 0.227
CMP-165, MMP2 cleaved (ligand, disulfide 58-105 (inferred); not fully specified (residue 23, N-terminus); also: MMP2 cleaved, ring opened, cut site not given here, peptide remnants on N-terminus (via glutaryl) and on Lys23 side chain) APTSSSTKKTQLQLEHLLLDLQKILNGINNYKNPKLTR[Nle]L[hSer][Yn3]KF[Ygp][Nle]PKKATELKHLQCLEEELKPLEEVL[hSer]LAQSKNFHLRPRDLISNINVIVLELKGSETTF[hSer]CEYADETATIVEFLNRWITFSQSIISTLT | 0.237
CMP-168, MMP2 cleaved (ligand, disulfide 58-105 (inferred); not fully specified (residues 9, 23); also: cleaved by MMP2, bridge opened, remnants on Lys9 and Glu23 not defined) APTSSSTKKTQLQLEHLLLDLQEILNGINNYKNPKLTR[Nle]L[hSer][Yn3]KF[Ygp][Nle]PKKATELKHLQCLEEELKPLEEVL[hSer]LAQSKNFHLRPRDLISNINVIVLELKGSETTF[hSer]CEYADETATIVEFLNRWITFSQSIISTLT | 1.08
CMP-166, MMP2 cleaved (ligand, not fully specified; as CMP-166 but cleavable peptide cut by MMP2 (macrocycle opened); cut site not given) APTSSSTKKTQLQLEHLLLDLQKILNGINNYKNPKLTRXLXYKFYXPKKATELKHLQCLEEELKPLEEVLXLAQSKNFHLRPRDLISNINVIVLELKGSETTFXCEYADETATIVEFLNRWITFSQSIISTLT | 0.225
